studySystem: Omicron strain (BA.2) RBD, biotinylated (SARS-CoV-2 (Omicron strain BA.2), UniProt P0DTC2 331-529)
procedureSummary: BLI (Octet), biotinylated RBD on streptavidin biosensor, Fab in solution
Below, each of the binders is paired with its reported Kd value.

Worked cases, Kd given:
binder="recombinant Fab protein of antibody No. 2 (Fab, V domains shown) VH: EVQLVESGGGVVQPGRSLRLSCAASGFKFSKFAMHWVRQAPGKGPEWVAVISYDGNQYHSADSVKGRFTISRDNSFNTLYLQMNSLGPEDTAVYYCARDGPDTSGYYANIYFDFWGQGTLVTVSS VL: QSVLTQPPSVSGAPGQRVTISCTGSSSNIGAGYDVHWYQQLPGRAPKLLIFDNNNRPSGVPDRFSGSKSGTSASLAITGLQTEDEAYYYCQSYDNSLILAVFGGGTKVTVL" result="≤ 100 nM"
binder="recombinant Fab protein of antibody No. 7 (Fab, V domains shown) VH: EVQLLESGGGLVQPGGSLRLSCAASGFTFSRYALSWVRQAPGKGLEWVSAISGAAITTYYADSVKGRFTISRDDSRNTLFMQMDSLRAEDTAVYYCAKGDYYDSSGYLAEYFPHWGQGTLVTVSS VL: SYELTQPPSVSVSPGQTARITCFADALPKQHAYWYQQKAGQAPVLVIFKDTERPSGIPKRFSGSRSGATVTLTISGVQAEDEADYYCQSTDISGVLFGGGTKLTVL" result="≤ 100 nM"
binder="recombinant Fab protein of antibody No. 5 (Fab, V domains shown) VH: EVQLVESGGGLVQPGGSLRLSCAASGFTFYSYWMTWVRQAPGKGLEWVANIKHDESESHYVDSVRGRFTISRDNAKNSVYLQMKGLRAEDTAVYYCARDGGYNILTAYYHAPSYWGQGTLVTVSS VL: QSALTQPASVSGSPGQSITISCTGTSSDVGGYNFVSWYRQYPGKAPQLMIYDVSRRPSGDSDRFSGSKSGNTASLTISGLQAEDEAEYHCSSYTGRSPYVVFGGGTKVTVL" result="≤ 100 nM"

Shifting focus to the binder that follows.
Output measured Kd for this item: recombinant Fab protein of antibody No. 6 (Fab, V domains shown) VH: QVQLVQSGPEVKKPGTSVKVSCKASGFTFYYSAVQWVRQARGQRLEWLGWMAVGSGKANYAQKFQERLTLTRDMSTSTAYMELSSLRSEDTAVYYCAAPNCTGGSCYDGFNLWGQGTVVTVSS VL: EIVLTQSPGTLSLSPGDRAILSCRASQTVNSNYLAWYQQKPGQAPRLLIYGTSSRATGIPDRFSGSGSGTDFTLTISRLEPEDFAVYYCQQYGSSPWLFGQGTKVEIK
≤ 100 nM
